Let's look at some compounds and their measured cytotoxicity at 70.5 h.
# method: Human HepG2 cell viability assay in 384 well format
# Format: toxicity, cell-based
# Parameters: dose 125 nL, time 70.5 hour; concentration not given beside the values
# setup conditions: HepG2 cells, read-out: Inhibition
Write it as a number; the unit % goes unstated.

[Q] Need cytotoxicity at 70.5 h, item Cc1cccc(COC[C@@]23CCC[C@@H]2CN(S(=O)(=O)N(C)C)C3)n1
[A] -4.49

Further cases:
[Q] Need cytotoxicity at 70.5 h, item CCCC(=O)NC1CCCN(c2nc3ccccc3cc2CO)C1 (stereo not drawn)
[A] 13.7

[Q] How about this compound: CN(C)C(=O)N1CCN(Cc2cnc(-c3ccsc3)s2)CC1
[A] -11.7

[Q] How about this compound: CC1CCN(CCNCc2cc(-c3ccccc3)cn3nnnc23)CC1
[A] -3.94

[Q] How about this compound: CCn1ccnc1C1CCN(C(=O)Nc2ccc(OC)cc2)CC1
[A] 29.5

[Q] How about this compound: CCCNC(=O)CSc1nnc2[nH]c(=O)c3c(n12)CCCC3
[A] 12.2

[Q] How about this compound: COCC1CN(Cc2ccccn2)Cc2cn(C)nc21 (stereo not drawn)
[A] -4.86

###

# method: Human HepG2 cell viability assay in 384 well format
# Format: toxicity, cell-based
# Design: dose 125 nL, time 70.5 hour; concentration not given beside the values
# setup conditions: HepG2 cells, read-out: Inhibition
Let's look at some compounds and their measured cytotoxicity at 70.5 h.
Write it as a number; the unit % goes unstated.

// worked examples, cytotoxicity at 70.5 h included
[Q] Need cytotoxicity at 70.5 h, item Cc1ncc(C(=O)N2CCOC(C(=O)N3CCCCCC3)C2)c(C)n1 (stereo unspecified)
[A] 1.17

[Q] How about this compound: COCc1c(C(=O)N2CCCC(C(=O)c3nccn3C)C2)noc1C (stereo unspecified)
[A] -1.47

[Q] How about this compound: CNC(=O)CC1CCN(Cc2nc(-c3ccc(SC)cc3)oc2C)CC1
[A] -6.83

[Q] How about this compound: COc1c(CNCc2cccnc2OC2CCCC2)c(C)nn1C
[A] -1.47

[Q] How about this compound: CC(=O)c1c(F)cccc1NC1CCN(C(=O)C2CCCCC2)CC1
[A] -2.39

Further cases:
[Q] Need cytotoxicity at 70.5 h, item COC(=O)NCC(=O)N1CCCC1c1nc(-c2ccccc2F)c[nH]1 (stereo unspecified)
[A] -3.18

[Q] How about this compound: CN(C(=O)COCc1ccccc1)C1CCN(CC2CCOC2)CC1 (stereo unspecified)
[A] -7.68

[Q] How about this compound: CCN(CC)c1ccc(CNC(=O)C2(C)CCOCC2)cc1F
[A] 14.4

###

# method: Human HepG2 cell viability assay in 384 well format
# Format: toxicity, cell-based
# Parameters: dose 125 nL, time 70.5 hour; concentration not given beside the values
# setup conditions: HepG2 cells, read-out: Inhibition
Let's look at some molecules and their measured cytotoxicity at 70.5 h.
Write it as a number; the unit % goes unstated.

// worked examples, cytotoxicity at 70.5 h included
[Q] Need cytotoxicity at 70.5 h, item COc1cc(C(=O)N2CCCS2(=O)=O)ccc1OC(C)C
[A] 21.8

[Q] How about this molecule: CNS(=O)(=O)CCn1cc(-c2cc3c(cc2OC)CCC3)nn1
[A] -7.97

[Q] How about this molecule: FC(F)(F)c1cccc(C2(CNCc3cc[nH]c3)CCOCC2)c1
[A] -3.76

[Q] How about this molecule: O=S(=O)(NCc1ccnc(-n2ccnc2)c1)c1cncc(Cl)c1
[A] -0.226

[Q] How about this molecule: Cc1ccnc(NC(=O)c2[nH]nc(C(C)C)c2Br)c1
[A] 19.7

Further cases:
[Q] Need cytotoxicity at 70.5 h, item Cn1cc(NC(=O)CNC(=O)N2CCN(c3ccc(F)cc3)CC2)cn1
[A] -2.76

[Q] How about this molecule: c1ccc(N2CCC3(COCCN(Cc4cccs4)C3)C2)nc1 (configuration not stated)
[A] -4.82

[Q] How about this molecule: Cc1cc(C(=O)NCCSC2CCCC2)no1
[A] -1.92

[Q] How about this molecule: COCc1ccccc1CNCc1c(C)nn(C)c1N(C)C
[A] -0.163

[Q] How about this molecule: CCCn1nc(C(=O)N(C)Cc2cnn(C)c2)ccc1=O
[A] 0.0623

[Q] How about this molecule: NC(=O)Cn1cc(NC(=O)N2CCCCCC2)cn1
[A] -11.1

[Q] How about this molecule: CC1(C)CC(C(=O)N2CCC3(CCC(=O)N(C4CC4)C3)CC2)CCO1 (configuration not stated)
[A] -4.55

[Q] How about this molecule: O=C(CCNC(=O)c1ccccc1N1CCOCC1)NC1CCCC1
[A] -1.96

Hello, the source for this data is ChEMBL document CHEMBL3507680, in case you need it.
